Where do these numbers come from? They come from ChEMBL document CHEMBL1143164.

Target: Serine/threonine-protein kinase mTOR (Homo sapiens, UniProt P42345)
pIC50: −log10 of the molar value.
Threshold check on pIC50: at or above 6 gives criterion met, strictly below gives criterion not met.

[ask] Hi, just wondering whether COC[C@H]1OC(=O)/C(=C/N2CCN(CCCN(C)C)CC2)C2=C(O)C(=O)C3=C([C@H](OC(C)=O)C[C@]4(C)[C@@H](O)CC[C@@H]34)[C@]21C shows pIC50 of 6 or higher.
[reply] criterion met

[ask] pIC50 >= 6 for COC[C@H]1OC(=O)c2coc3c2[C@@]1(C)C1=C(C3=O)[C@@H]2CC[C@H](O)[C@@]2(C)C[C@H]1OC(C)=O ?
[reply] criterion met

[ask] Could you tell me if the measured pIC50 of COC[C@H]1OC(=O)/C(=C/N(CCO)CCO)C2=C(O)C(=O)C3=C([C@H](OC(C)=O)C[C@]4(C)[C@@H](O)CC[C@@H]34)[C@]21C reaches 6 or more?
[reply] criterion not met

[ask] Is it the case that CCN(/C=C1/C(=O)O[C@H](COC)[C@@]2(C)C1=C(O)C(=O)C1=C2[C@H](OC(C)=O)C[C@]2(C)[C@@H](O)CC[C@@H]12)CCCN(C)C has pIC50 reaching or exceeding 6?
[reply] criterion not met

[ask] Reported pIC50 at or above 6? COC[C@H]1OC(=O)/C(=C/N(C)CCCC(=O)O)C2=C(O)C(=O)C3=C([C@H](OC(C)=O)C[C@]4(C)[C@@H](O)CC[C@@H]34)[C@]21C
[reply] criterion not met
